- System: 786-0 renal
- Method: NCI tumour cell line growth inhibition, 48 h
Quantity Measured: TGI

Molecule	TGI
Cc1c(NC(=O)CSC(=S)N2CCN(Cc3ccccc3)CC2)c(=O)n(-c2ccccc2)n1C	> 100 µM

# per-item lookup of TGI; items listed below
1. COC(=O)c1cc2ccc(OC(C)=O)c(OC(C)=O)c2cn1
2. C1=C2/CC[C@H](Sc3ccccc3)[C@H]2C2(CCCCC/1)OCCO2
3. CC(=O)Oc1c2oc3ccc(Cl)cc3c(=O)c2c(O)c2ccsc12
4. Cc1ccc(N2C(=O)C3C=CC(n4[nH]c(=O)n(Cc5ccccc5)c4=O)CC3C2=O)cc1 (centres undefined)
5. CS[C@]12C(=O)C[C@@]3(C)[C@@H](CC[C@]3(O)C(=O)CO)[C@@H]1CCC1=CC(=O)CC[C@@]12C
6. CCc1ccc(NC(=O)COC(=O)c2cc([N+](=O)[O-])ccc2Sc2nnnn2C)cc1

1: 33 µM; 2: > 100 µM; 3: > 100 µM; 4: > 100 µM; 5: > 100 µM; 6: 72.9 µM

# per-item lookup of TGI; items listed below
1. C[CH2][Sn]([CH2]C)([O]C(=O)C(OC(C)=O)c1ccccc1)[O]C(=O)C(OC(C)=O)c1ccccc1 (centres undefined)
2. CCCC(=O)NC(Nc1ccc(S(=O)(=O)Nc2nc(C)cc(C)n2)cc1)(C(F)(F)F)C(F)(F)F

["34.8 µM", "> 100 µM"]

# per-item lookup of TGI; items listed below
1. CCOC(=O)c1c(N2CCCC2)ncn(Cc2ccccc2)c1=S
2. CN1CCN(CCCBr)CC1
3. O=C(OCCN=c1c2ccccc2ccc2ccccc12)c1ccc([N+](=O)[O-])cc1
4. CC1(C)C2C=CC1(C)C1(CC2)OCCO1 (centres undefined)

1: > 100 µM; 2: > 100 µM; 3: > 100 µM; 4: > 100 µM
